Taken from the EternaBench riboswitch data.

test system: MS2 coat protein; test: apparent Kd, MS2 coat protein; higher = weaker binding; RNA-MaP array; conditions: designed as: OFF switch for flavin mononucleotide; no ligand
observedProperty: apparent Kd (nM)
# unit: nM | format: bare number

Q. Can you look up the measured apparent Kd of "UAAGUUUUAGAGAAGGCCUGGAAUUGCUGUGCAGGAGGAUAUCUGGGACAUGAGGAUCACCCAUGUAGCCGCUAAGCGUAAGGG" for me?
A. 46.6

Q. Given "GACCAUCACCAGAAGGUCCUCCACCAGCGAGAUCCGACAUGAGGAUCACCCAUGUACUGUGGAUGGAAGGAUAUGGAAGGCUCU" , state its recorded apparent Kd.
A. 46.9

Q. Any idea what apparent Kd was measured for "GGAUUGAUAGGAUAUACAUAGAUGUAGGAGCCUUCACUCCCACAUGAGGAUCACCCAUGUAGAAGGAUCAGUAA" ?
A. 12.1

----------
test system: MS2 coat protein; assay: apparent Kd, MS2 coat protein; higher = weaker binding; RNA-MaP array; FMN 200 µM where present; details: designed as: OFF switch for flavin mononucleotide; no ligand
observedProperty: apparent Kd (nM)
Report as a plain number; the unit nM is understood.

Q. State the recorded apparent Kd for this entry: "CCUUGACAUGAGGAUCACCCAUGUUAGGAUAUAACAUUAGACACUACAGUAUGUAGUGUUAGAAGGGAUAUGGG"
A. 22.8

Q. Entry "AAACCGCUAGGAUAUACGAAAUAAAACUCUGUACUUGAGGUACAUGAGGAUCACCCAUGUAGAAGGAGCUCGGA" : reported apparent Kd = ?
A. 119

Q. What does the data say about its apparent Kd? Entry: "UCCUCCGCAGGAUAUACAUGGGCGCCCGUCUUCAACCAUUAACAUGAGGAUCACCCAUGUAGAAGGGCGUCUCU"
A. 16.1

Q. Would you mind telling me what apparent Kd value was observed for "GUGUACAGAGGAUAUACUGGAGCAUGGAAACAUGCAACUUCACAUGAGGAUCACCCAUGUAGAAGGCUGUACAC" ?
A. 17.6

Q. Bench note: what apparent Kd did "GCCUUAUCAGUCAGGAUAUACAAUAAAAUAAUUAAGUAGAAGGGACAUGAGGAUCACCCAUGUACAUUACAUUG" show?
A. 18.6

Q. Look up apparent Kd: "CUAUUCCGAGGAUAUACAUGAGGAUCACCCAUGUCGGGCCUCUGCGUUUAGCGCGUAAGUAGAAGGUGGGUUUC"
A. 31

Q. Entry "CGGUGACUGGUGAGGAUAUCGUGUUCGAAAGAACGUGAGAAGGCACAUGAGGAUCACCCAUGUGAUCCUCAUCG" has what apparent Kd?
A. 26.1

Q. Need apparent Kd, item "AAUAUGUUGCAGAAGGCCAUGUUGUGGUAGUACCUCAUGACAUGAGGAUCACCCAUGUUUGUGUUGGAGGAUAUGCAAUAUAUU"
A. 37.7

Q. Which apparent Kd is listed for "CAGUAAUUCGAAGGAUAUGGUUACAUGAGGAUCACCCAUGUAUUUUUUGUGAUCUUAAAAUUGAUCCAGAAGGUCGAAUUACUG" ?
A. 177

Q. GET /values?readout=apparent Kd&item= "GUCUUCCUAGGAUAUACAUGAGGAUCACCCAUGUACAGUUUCGUCUAGGGAUACUCGCGUAGAAGGAGGUGGAU"
A. 20.8

Q. Which value of apparent Kd has been reported for "CCGGAAGUACAGGAUAUCGUAUCGGAAACGAUACGAGAAGGGUAUACAUGAGGAUCACCCAUGUGUCCUACCGG" in the records?
A. 28.7

Q. Entry "GAGCGAAAGCUCAAUGUCGAUAGCAGAAGGACAUGUAAAUACAUGAAAACAUGAGGAUCACCCAUGUAGGAUAUGCUAUCGACU" has what apparent Kd?
A. 5.46

Q. Fill in: apparent Kd of "GGACCGUGCAGAGUUGGCGGUCGGCAGGAUAUGACAUGAGGAUCACCCAUGUGAACUCCAUUGGGUCAGAAGGGCCACGACACA" is ___
A. 17.6

Q. Item under review: "UAUUAACACGAAGGAUAUGCUUACAUGAGGAUCACCCAUGUAUGUAUAUUGAUCCAGAGUUUUGAGCAGAAGGUCGUGAGUAAA" . Reported apparent Kd?
A. 32.2

Q. Param item = "UCUAGACAUGAGGAUCACCCAUGUGAGGAUAUGAUGCGAUCGUCGAAAGACGAUAGCAUCAGAAGGCACAAAUG" ; retrieve measured apparent Kd.
A. 66.5
